# credit: patent US20060223837A1

Target: human VR1 (Homo sapiens)
Construct: expressed in transfected cells; host or cells: HEK293
Sequence (Q8NER1 whole entry): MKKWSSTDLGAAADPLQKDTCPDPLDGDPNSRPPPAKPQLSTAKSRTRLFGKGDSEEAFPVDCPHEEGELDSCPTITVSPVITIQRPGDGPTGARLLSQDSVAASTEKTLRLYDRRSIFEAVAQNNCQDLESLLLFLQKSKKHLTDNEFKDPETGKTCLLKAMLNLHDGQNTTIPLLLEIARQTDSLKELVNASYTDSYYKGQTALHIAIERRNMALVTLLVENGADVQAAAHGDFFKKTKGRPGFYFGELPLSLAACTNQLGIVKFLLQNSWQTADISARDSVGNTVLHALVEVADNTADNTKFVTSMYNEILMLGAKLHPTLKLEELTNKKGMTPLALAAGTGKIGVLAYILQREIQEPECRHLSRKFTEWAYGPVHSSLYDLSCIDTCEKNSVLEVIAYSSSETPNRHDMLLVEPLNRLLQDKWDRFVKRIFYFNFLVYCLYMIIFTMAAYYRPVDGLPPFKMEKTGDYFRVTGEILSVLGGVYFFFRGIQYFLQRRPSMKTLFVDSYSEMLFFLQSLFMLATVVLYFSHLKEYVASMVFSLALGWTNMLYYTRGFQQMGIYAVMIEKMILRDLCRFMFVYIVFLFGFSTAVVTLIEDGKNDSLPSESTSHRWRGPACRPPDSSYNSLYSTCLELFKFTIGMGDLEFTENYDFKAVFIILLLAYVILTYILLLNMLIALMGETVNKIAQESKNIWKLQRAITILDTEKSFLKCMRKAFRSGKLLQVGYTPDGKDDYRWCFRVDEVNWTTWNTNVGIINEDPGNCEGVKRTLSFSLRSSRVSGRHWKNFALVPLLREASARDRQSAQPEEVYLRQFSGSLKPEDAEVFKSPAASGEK
Test: Human VR1 functional assay (FLIPR intracellular Ca2+)
Format: cell-based
Conditions: inhibition of capsaicin response, 10 μM
Experimental: The functional activity of the test compounds was determined by measuring changes in intracellular calcium concentration using a Ca^2+-sensitive fluorescent dye and FLIPR™ technology. Increases in Ca^2+ concentration were readily detected upon challenge with capsaicin. […] EC50 or IC50 values were determined from dose-response studies. […]
MEASUREMENT NAME: h % I (10 μM) (%)

1 = CN(C)C(=O)c1cccc(-c2cccc(NC(=O)CCc3ccc(C(C)(C)C)cc3)c2)c1 [Cpd 38]
2 = CC(=O)c1cccc(-c2ccc(NC(=O)CCc3ccc(C(C)(C)C)cc3)cc2)c1
Problem: Between these two entries, 1 and 2 , state which has the higher h % I (10 μM). Field: selected label. Fill in the label of the entry you choose.
Result: 2

1 = CC(C)(C)c1ccc(CCC(=O)Nc2ccc(-c3cccc(O)c3)c(C(=O)O)c2)cc1
2 = CC(C)(C)c1ccc(CCC(=O)Nc2cccc(-c3ccc(CO)cc3)c2)cc1
Problem: Between 1 and 2 , whose recorded h % I (10 μM) is greater? Let me know the label of the one you choose.
Result: 1
(1: 8%, 2: 1%)

P = CC(C)(C)c1ccc(CCC(=O)Nc2ccc(-c3ccccc3O)cc2)cc1
Q = CC(=O)Nc1cccc(-c2ccc(NC(=O)CCc3ccc(C(C)(C)C)cc3)cc2C(=O)O)c1
R = CC(C)(C)c1ccc(CCC(=O)Nc2ccc(-c3cccc(C(N)=O)c3)cc2CO)cc1
S = CC(C)(C)OC(=O)NCc1cccc(-c2ccc(NC(=O)CCc3ccc(C(C)(C)C)cc3)cc2)c1
T = CN(C)C(=O)c1cccc(-c2cccc(NC(=O)CCc3ccc(C(C)(C)C)cc3)c2)c1 [Cpd 34]
Problem: Ascending by h % I (10 μM), please: list the molecules accordingly. # output: labels, in the requested order
Result: R, S, T, Q, P
(R: 6%, S: 9%, T: 14%, Q: 20%, P: 40%)

P = CC(C)(C)c1ccc(CCC(=O)Nc2cccc(-c3cccc(O)c3)c2)cc1
Q = CC(=O)Nc1cccc(-c2ccc(NC(=O)CCc3ccc(C(C)(C)C)cc3)c(CO)c2)c1
R = CC(C)(C)c1ccc(CCC(=O)Nc2cccc(-c3cccc(C(N)=O)c3)c2)cc1
S = CC(C)(C)c1ccc(CCC(=O)Nc2ccc(-c3cccc(C(N)=O)c3)c(C(=O)O)c2)cc1
Problem: Please list these in order of increasing h % I (10 μM). Thank you! # list labels per requested ordering
Result: Q, S, R, P
(Q: 7%, S: 11%, R: 16%, P: 35%)

P = CC(C)(C)c1ccc(CCC(=O)Nc2cccc(-c3ccc(O)cc3)c2)cc1
Q = CN(C)C(=O)c1cccc(-c2ccc(NC(=O)CCc3ccc(C(C)(C)C)cc3)cc2)c1
Problem: Pick one: P or Q . Which one has the lower reported h % I (10 μM)? Answer by quoting the chosen item's label.
Result: Q

P = CC(C)(C)c1ccc(CCC(=O)Nc2ccccc2-c2cccc(O)c2)cc1
Q = CC(C)(C)c1ccc(CCC(=O)Nc2ccccc2-c2cccc(CO)c2)cc1
R = CC(C)(C)c1ccc(CCC(=O)Nc2ccc(-c3cccc(O)c3)cc2CO)cc1
Problem: hey, can you rank those molecules up there by h % I (10 μM)? biggest number first please Give the labels in the order specified.
Result: P, Q, R
